Assay: NCI Yeast Anticancer Drug Screen. Data for the sgs1 strain (AID 173);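 also: 0% = growth of vehicle-only control cultures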
Settings: S. cerevisiae sgs1 mutant, at 33.0 µM, stronger effect = higher value
Method: Growth inhibition of yeast strains with defined genetic alterations is measured as a screen for potential anti-cancer activity. Selected strains with alterations in DNA damage repair or cell cycle control were exposed to compounds and growth inhibition was measured relative to vehicle treated controls. The strain used in this assay is sgs1
About 79,000 compounds went through this panel and 15% of them were active in at least one assay; those are over-represented in the sample as a whole.
Response field class: string, computed from recorded growth inhibition by ranges bottom (below 40%), middle (40% to below 80%), top (80% or more)

Would you mind sorting O=C1c2ccccc2-c2n[nH]c3cccc1c23 into the appropriate category? bottom

Would you mind sorting CCC/C(Cl)=N\OC(=O)Nc1ccc(Br)cc1 into the appropriate category? top

Would you mind sorting CCC(=O)OCCn1c2nc(=O)[nH]c(=O)c-2nc2cc(C)c(C)cc21 into the appropriate category? top

Would you mind sorting O=C1C=CC(=Nc2ccc3c(c2)Cc2cc(NC(=O)C(F)(F)F)ccc2-3)O1 into the appropriate category? middle

Would you mind sorting CCC/C(Cl)=N\OC(=O)Nc1cccc(C(F)(F)F)c1 into the appropriate category? top

----------
Assay: NCI Yeast Anticancer Drug Screen. Data for the mec2-1 strain (AID 157)
Conditions: S. cerevisiae mec2-1 strain, at 100.0 µM
This is part of a sample that, as a whole, favours compounds with a hit. Of some 79,000 tested, about 15% had one in any assay. Active and inactive are the calls of the source. No stated cut-off is given here; in the data, active means growth inhibition above about 70%; inactive means the rest.
API: response.call in active, inactive

Molecule	Category label
OC1CCCc2c1cc1ccc3cccc4ccc2c1c34 (configuration not stated)	active
[O-][n+]1c2ccc(O)cc2nc2ccc(Cl)cc21	inactive
CNC(=O)OCc1c(COC(=O)NC)c(-c2ccc(Cl)c(Cl)c2)n2c1CCC2	active
O=S(=O)(CCCl)c1ccccc1Cl	active

Hi, sorry to bother you, what did the test record for CC(=O)Nc1ccc(/C=C(\C#N)c2ccc(C)cc2)cc1 ? inactive

Hi, sorry to bother you, what did the test record for COc1ccc(/C=C/C(=O)C(C)(C)Br)cc1 ? active

Hi, sorry to bother you, what did the test record for CC(=O)Nc1ccc2c(c1)C(=Nc1ccc(C(=O)O)cc1)c1ccccc1-2 ? active

Hi, sorry to bother you, what did the test record for FC(F)(F)c1nc2nc(Cl)c(Cl)nc2n1CCCN1CCOCC1 ? inactive

Hi, sorry to bother you, what did the test record for O=C1C(Nc2ccccc2)=C(Oc2ccccc2)C(=O)c2ccccc21 ? inactive

----------
Experiment: NCI Yeast Anticancer Drug Screen. Data for the wt2 strain (AID 169);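 also: 0% = growth of vehicle-treated yeast cultures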
Settings: S. cerevisiae wt2 strain growth inhibition; at 1.2 µM; stronger effect = higher value
Compounds without any hit were thinned out: in the full panel of roughly 79,000, 15% have a hit.
Quick reference: growth inhibition of the listed items.
Return type: number; implicit unit %.

Below, each entry is followed by its recorded growth inhibition result.
Molecule	Result number
c1ccc2c(c1)-c1nc3ccccc3cc1C2N1CCOCC1 (stereo unspecified)	-1
O=C1CSC(/C=C/c2ccccc2)N1c1ccc(-c2ccc(-n3c(-c4ccccc4)nc4ccccc4c3=O)cc2)cc1 (stereo unspecified)	-3
CSc1nc(=S)[nH]c2c1c(C)nn2-c1ccccc1	-14
CCOC(=O)c1cc([N+](=O)[O-])cc([N+](=O)[O-])c1Sc1ncnc2nc[nH]c12	-29
COC(=O)c1ccc(NCC2=CC(=O)C=CC2=O)cc1O	20
O=C(CC(=O)n1nc(-c2ccccc2)c(N=Nc2ccccc2C(=O)O)c1-c1ccccc1)Nc1ccc(Cl)cc1	-3

So what's the measured growth inhibition for this one? O=C(NNc1ccnc2cc(Cl)ccc12)/C(=C\c1ccccc1Cl)NC(=O)c1ccccc1 4

So what's the measured growth inhibition for this one? COC(=O)C1=C(C)NC(C)=C(C(=O)OC)C1c1cccc(/[N+]([O-])=C/c2ccccc2)c1 0

So what's the measured growth inhibition for this one? CCS(=O)(=O)c1ccc(/C=C/C=N/NC(=S)NCC(C)C)cc1 -8

So what's the measured growth inhibition for this one? CCN(CC)[P+](c1ccccc1O)(N(CC)CC)N(CC)CC -25

Hello, the source for this data is PubChem BioAssay (NCI), in case you need it.
